- Assay comment: inhibitors of E-selectin induction by TNFa, primary screen, imaging, HUVEC, immunofluorescence, MLSMR starter and 10KST1 sets (AID 487);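 note: signal is fraction of cell area covered by stained E-selectin grains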
- Setup conditions: HUVEC TNFalpha-induced E-selectin immunofluorescence imaging, at 2 µM; stronger effect = higher value
Activity calls are given as the source filed them.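 Rule for the calls: active = visually confirmed hit in the image check and inhibition above 20%; inconclusive = visually confirmed hit but inhibition not above 20%; inactive = no visual hit in the image check.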
Experimental endpoint: inhibition

Reference set (5 entries):
Cc1cc(C)nc(N(C#N)CC(=O)N(c2ccccc2)C(C)C)n1; 50% (inactive)
Cc1cccc(C)c1N1C(=O)C2ON(c3ccccc3)C(c3ccncc3)C2C1=O (stereo not given); -151% (inactive)
Cc1cc(=O)oc(C)c1C(=O)N1CCN(Cc2ccc3c(c2)OCO3)CC1; -58.3% (inactive)
CN1CCN(c2ncnc3c2[nH]c2ccc(F)cc23)CC1; -17.5% (inactive)
COc1cccc(OCCN2CCN(c3ncnc4c3cnn4-c3ccccc3)CC2)c1; -98.5% (inactive)

get_value(item= CCCCOc1ccc(OCCCN2CCOCC2)cc1 , readout=inhibition) returns -52.4% (inactive)

The molecule CC(=O)OCC(=O)[C@@]12OC3(CCCC3)O[C@@H]1C[C@H]1[C@@H]3CCC4=CC(=O)C=C[C@]4(C)[C@@]3(F)[C@@H](O)C[C@@]12C showed inhibition equal to -15.3% (inactive)

Per the record, CC1(C)C/C(=C(/C#N)C(N)=O)CCO1 has inhibition of -42.1% (inactive)

Note to self: inhibition recorded for CCOC(=O)c1[nH]c2ccc(Br)cc2c1NC(=O)CNC was -29% (inactive)

Short answer for COc1ccccc1C(=O)NC(=Nc1nc2ccccc2o1)NC(=O)c1ccccc1OC : inhibition was 0.2% (inactive)
